Measured values drawn from patent EP4682145A1 for this set.

molecular target: human FFAR1 (GPR40) (Homo sapiens, UniProt O14842); construct: Flag; assay: NFAT-RE-based reporter gene activity assay (Dual-Glo luciferase) for GPR40 agonistic activity in co-transfected HEK293T cells; conditions: 4-hour treatment
Sequence (O14842 whole entry): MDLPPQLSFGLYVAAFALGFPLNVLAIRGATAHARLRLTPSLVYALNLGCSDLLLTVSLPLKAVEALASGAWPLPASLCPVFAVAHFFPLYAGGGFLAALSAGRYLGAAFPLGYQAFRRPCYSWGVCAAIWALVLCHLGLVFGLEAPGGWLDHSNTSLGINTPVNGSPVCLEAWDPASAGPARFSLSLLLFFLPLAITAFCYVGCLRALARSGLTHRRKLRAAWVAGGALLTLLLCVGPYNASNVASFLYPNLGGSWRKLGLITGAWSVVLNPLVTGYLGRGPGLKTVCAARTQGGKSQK
Measured Endpoint: EC50

Ask: Provide value of EC50 for this record tested with human FFAR1 (GPR40) (Homo sapiens, UniProt O14842): COc1cccc(N2CCC(c3oc4cc(C(CC(=O)O)C5CC5)ccc4c3-c3nnc(C(C)(C)CN4CCCCC4)o3)CC2)c1 (stereo not shown) [Compound 137]
Reply: 0.01 to 0.1 µM

Ask: Provide value of EC50 for this record tested with human FFAR1 (GPR40) (Homo sapiens, UniProt O14842): CNC(=O)C(C)(C)n1cc(-c2c(C3CCN(c4cccc(OC)c4)CC3)oc3cc(C(CC(=O)O)C4CC4)ccc23)cn1 (stereo not shown) [Compound 52]
Reply: 0.1 to 0.5 µM

Ask: Provide value of EC50 for this record tested with human FFAR1 (GPR40) (Homo sapiens, UniProt O14842): O=C(O)C[C@H](c1ccc2c(C(=O)Nc3ccccc3F)c(C3CCN(c4ccc5c(c4)OCO5)CC3)oc2c1)C1CC1 [Compound 331]
Reply: 0.1 to 0.5 µM

Ask: Provide value of EC50 for this record tested with human FFAR1 (GPR40) (Homo sapiens, UniProt O14842): COc1cccc(N2CCC(c3oc4cc([C@@H](CC(=O)O)C5CC5)ccc4c3C(C)OCC3CCCC3)CC2)c1 (stereo partly shown) [Compound 419]
Reply: 0.01 to 0.1 µM

Ask: Provide value of EC50 for this record tested with human FFAR1 (GPR40) (Homo sapiens, UniProt O14842): CC(C)(C)c1ccc(-c2c(C3CCN(c4cccc(S(C)(=O)=O)c4)CC3)oc3cc(C(CC(=O)O)C4CC4)ccc23)cc1 (stereo not shown) [Compound 27]
Reply: 0.1 to 0.5 µM

Ask: Provide value of EC50 for this record tested with human FFAR1 (GPR40) (Homo sapiens, UniProt O14842): COc1ccc(F)c(N2CCC(c3oc4cc(C(CC(=O)O)C5CC5)ccc4c3-c3ccc(C)cc3)CC2)c1 (stereo not shown) [Compound 160]
Reply: 0.1 to 0.5 µM

Ask: Provide value of EC50 for this record tested with human FFAR1 (GPR40) (Homo sapiens, UniProt O14842): COc1cccc(N2CCC(c3oc4cc([C@@H](CC(=O)O)C5CC5)ccc4c3C(=O)Nc3cc(Cl)ccc3F)CC2)c1 [Compound 270]
Reply: 0.01 to 0.1 µM

Ask: Provide value of EC50 for this record tested with human FFAR1 (GPR40) (Homo sapiens, UniProt O14842): CCCCOC(C)c1c(C2CCN(c3cccc(OC)c3)CC2)oc2cc([C@@H](CC(=O)O)C3CC3)ccc12 (stereo partly shown) [Compound 410]
Reply: 0.1 to 0.5 µM

Ask: Provide value of EC50 for this record tested with human FFAR1 (GPR40) (Homo sapiens, UniProt O14842): COc1ccc(F)c(N2CCC(c3oc4cc([C@@H](CC(=O)O)C5CC5)ccc4c3CC=C(C)C)CC2)c1 [Compound 372]
Reply: 0.1 to 0.5 µM

Ask: Provide value of EC50 for this record tested with human FFAR1 (GPR40) (Homo sapiens, UniProt O14842): COc1cccc(N2CCC(c3oc4cc(C(CC(=O)O)C5CC5)ccc4c3C(=O)N3CCCC3C)CC2)c1 (stereo not shown) [Compound 359]
Reply: 0.1 to 0.5 µM

Ask: Provide value of EC50 for this record tested with human FFAR1 (GPR40) (Homo sapiens, UniProt O14842): COc1ccc(F)c(N2CCC(c3oc4cc(C(CC(=O)O)C5CC5)ccc4c3-c3cccc(N4CCCC4(C)C)c3)CC2)c1 (stereo not shown) [Compound 192]
Reply: 0.1 to 0.5 µM

Ask: Provide value of EC50 for this record tested with human FFAR1 (GPR40) (Homo sapiens, UniProt O14842): COc1cccc(N2CCC(c3oc4cc([C@@H](CC(=O)O)C5CC5)ccc4c3C(C)OCC(C)(C)C)CC2)c1 (stereo partly shown) [Compound 411]
Reply: 0.01 to 0.1 µM

Ask: Provide value of EC50 for this record tested with human FFAR1 (GPR40) (Homo sapiens, UniProt O14842): COc1cccc(N2CCC(c3oc4cc(C(CC(=O)O)C5CC5)ccc4c3-c3nnc(C(C)(C)C(F)(F)F)o3)CC2)c1 (stereo not shown) [Compound 126]
Reply: 0.01 to 0.1 µM
